# PROTOCOL_DETAILS: Oral bioavailability in rat at 1 mg/kg
# Format: ADME, organism-based
# REPORTED_CONDITIONS: in vivo
READOUT_LABEL: bioavailability

## Task Which bioavailability is reported for this molecule? Cc1ccc(O)c(C(=O)N[C@H]2CC[C@@H](NC(=O)c3cc(F)cnc3Oc3cccc(-c4ccc(CN5C[C@@H](C)N[C@@H](C)C5)cc4CN4CCOCC4)c3)CC2)c1
## Result < 16%

* * *

# PROTOCOL_DETAILS: Half life in rat at 1 mg/kg, iv
# Assay type: ADME, organism-based
# Design: dose 1 mg/kg, route intravenous
# REPORTED_CONDITIONS: in vivo
READOUT_LABEL: half-life

Check out these entries, answers already filled in.
Cc1cccc2nc(C(=O)N[C@H]3CC[C@@H](NC(=O)c4cc(F)cnc4Oc4cccc(-c5ccc(CN6C[C@@H](C)N[C@@H](C)C6)cc5)c4)CC3)cn12; 5.3 h
Cc1cc(C(=O)N[C@H]2CC[C@@H](NC(=O)c3cc(F)cnc3Oc3cccc(-c4ccc(CCCN5C[C@@H](C)N[C@@H](C)C5)cc4)c3)CC2)nn1C; 7 h
Cc1cc(C(=O)N[C@H]2CC[C@@H](NC(=O)c3cc(F)cnc3Oc3cccc(-c4ccc(O)cc4CN4CCOCC4)c3)CC2)nn1C; 13 h

## Task Which half-life is reported for this molecule? Cc1ccc(O)c(C(=O)N[C@H]2CC[C@@H](NC(=O)c3cc(F)cnc3Oc3ccc(F)c(F)c3)CC2)c1 [UK-500001]
## Result 7.6 h

## Task And the next one, Cc1ccc(O)c(C(=O)N[C@H]2CC[C@@H](NC(=O)c3cc(F)cnc3Oc3cccc(-c4ccc(CN5C[C@@H](C)N[C@@H](C)C5)cc4CN4CCOCC4)c3)CC2)c1 ?
## Result 7 h

## Task And the next one, Cc1cc(C(=O)N[C@H]2CC[C@@H](NC(=O)c3cc(F)cnc3Oc3cccc(-c4ccc(CCN5CCC(N6CCCC6)CC5)cc4)c3)CC2)nn1C ?
## Result 9 h
